Catalogue of viability, T/C values
System: 521955-158-R2-J5-PDC complex spheroid viability;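 note: spheroids exposed to agents for one week before reading; 100% = DMSO vehicle control viability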
Assay Summary: Anticancer human tumor 521955-158-R2-J5-PDC patient-derived pancreatic carcinoma cell line growth inhibition [GQUAD]
Assay Setup: second compound 3.16 µM; first compound 0.1 µM; hits give low values
Description: DNA G-quadruplex Stabilizer Agents in Combinations in Complex Spheroids A high-throughput screen of multi-cell type tumor spheroids was designed to identify active combinations of DNA G-quadruplex stabilizer agents and targeted small molecules. […] Compounds. […] If the clinical Cmax for an agent had not been determined, the highest concentration tested was 10 microM. […]
Numeric only. Scale: %

Lab request: please report viability, T/C under test system 521955-158-R2-J5-PDC complex spheroid viability for COc1cccc2c1C(=O)c1c(O)c3c(c(O)c1C2=O)CC(O)(C(=O)CO)CC3OC1CC(N)C(O)C(C)O1 (stereo not given) + CN(C)c1ccc(Nc2c3ccc(NC(=O)CCN4CCCC4)cc3nc3cc(NC(=O)CCN4CCCC4)ccc23)cc1 58.2

Any idea what viability, T/C came out for CC1COCCN1c1cc(C2(O)CC3CCC(C2)O3)c2cnn(-c3ccn[nH]3)c2n1 (stereo not given) + Cc1cnc(CNC(=O)c2c(=O)c3ccc(N4CCCN(C)CC4)nc3n3c2sc2ccccc23)cn1 on 521955-158-R2-J5-PDC complex spheroid viability? 13.5

Lookup: viability, T/C / 521955-158-R2-J5-PDC complex spheroid viability / C#Cc1c(F)ccc2cc(O)cc(-c3ncc4c(N5CC6CCC(C5)N6)nc(OCC56CCCN5CC(F)C6)nc4c3F)c12 (stereo not given) + CN(C)c1ccc(Nc2c3ccc(NC(=O)CCN4CCCC4)cc3nc3cc(NC(=O)CCN4CCCC4)ccc23)cc1 63.3

Next:
// map CC1COCCN1c1cc(-c2ccnn2C)c2ccnc(-c3ccn[nH]3)c2n1 (stereo not given) + Cc1[nH]c2ccc(F)cc2c1-c1nc2c3cccnc3c3ncccc3c2[nH]1 to recorded viability, T/C (system: 521955-158-R2-J5-PDC complex spheroid viability) 15.8

Form: Entry = CC1COCCN1c1cc(C2(S(C)(=N)=O)CC2)nc(-c2ccnc3[nH]ccc23)n1 (stereo not given) + Cc1[nH]c2ccc(F)cc2c1-c1nc2c3cccnc3c3ncccc3c2[nH]1 | System = 521955-158-R2-J5-PDC complex spheroid viability | viability, T/C = ____ 105
